Assignment: determine reported IC50 for the given compounds.
Target: GST-tagged truncated human mutant G2019S LRRK2 (Homo sapiens, UniProt Q5S007, G2019S)
Construct: GST-tagged truncated human mutant G2019S LRRK2; purchased Life Technologies Corporation (Carlsbad, CA)
Sequence (Q5S007 970-2527 G2019S limits assumed): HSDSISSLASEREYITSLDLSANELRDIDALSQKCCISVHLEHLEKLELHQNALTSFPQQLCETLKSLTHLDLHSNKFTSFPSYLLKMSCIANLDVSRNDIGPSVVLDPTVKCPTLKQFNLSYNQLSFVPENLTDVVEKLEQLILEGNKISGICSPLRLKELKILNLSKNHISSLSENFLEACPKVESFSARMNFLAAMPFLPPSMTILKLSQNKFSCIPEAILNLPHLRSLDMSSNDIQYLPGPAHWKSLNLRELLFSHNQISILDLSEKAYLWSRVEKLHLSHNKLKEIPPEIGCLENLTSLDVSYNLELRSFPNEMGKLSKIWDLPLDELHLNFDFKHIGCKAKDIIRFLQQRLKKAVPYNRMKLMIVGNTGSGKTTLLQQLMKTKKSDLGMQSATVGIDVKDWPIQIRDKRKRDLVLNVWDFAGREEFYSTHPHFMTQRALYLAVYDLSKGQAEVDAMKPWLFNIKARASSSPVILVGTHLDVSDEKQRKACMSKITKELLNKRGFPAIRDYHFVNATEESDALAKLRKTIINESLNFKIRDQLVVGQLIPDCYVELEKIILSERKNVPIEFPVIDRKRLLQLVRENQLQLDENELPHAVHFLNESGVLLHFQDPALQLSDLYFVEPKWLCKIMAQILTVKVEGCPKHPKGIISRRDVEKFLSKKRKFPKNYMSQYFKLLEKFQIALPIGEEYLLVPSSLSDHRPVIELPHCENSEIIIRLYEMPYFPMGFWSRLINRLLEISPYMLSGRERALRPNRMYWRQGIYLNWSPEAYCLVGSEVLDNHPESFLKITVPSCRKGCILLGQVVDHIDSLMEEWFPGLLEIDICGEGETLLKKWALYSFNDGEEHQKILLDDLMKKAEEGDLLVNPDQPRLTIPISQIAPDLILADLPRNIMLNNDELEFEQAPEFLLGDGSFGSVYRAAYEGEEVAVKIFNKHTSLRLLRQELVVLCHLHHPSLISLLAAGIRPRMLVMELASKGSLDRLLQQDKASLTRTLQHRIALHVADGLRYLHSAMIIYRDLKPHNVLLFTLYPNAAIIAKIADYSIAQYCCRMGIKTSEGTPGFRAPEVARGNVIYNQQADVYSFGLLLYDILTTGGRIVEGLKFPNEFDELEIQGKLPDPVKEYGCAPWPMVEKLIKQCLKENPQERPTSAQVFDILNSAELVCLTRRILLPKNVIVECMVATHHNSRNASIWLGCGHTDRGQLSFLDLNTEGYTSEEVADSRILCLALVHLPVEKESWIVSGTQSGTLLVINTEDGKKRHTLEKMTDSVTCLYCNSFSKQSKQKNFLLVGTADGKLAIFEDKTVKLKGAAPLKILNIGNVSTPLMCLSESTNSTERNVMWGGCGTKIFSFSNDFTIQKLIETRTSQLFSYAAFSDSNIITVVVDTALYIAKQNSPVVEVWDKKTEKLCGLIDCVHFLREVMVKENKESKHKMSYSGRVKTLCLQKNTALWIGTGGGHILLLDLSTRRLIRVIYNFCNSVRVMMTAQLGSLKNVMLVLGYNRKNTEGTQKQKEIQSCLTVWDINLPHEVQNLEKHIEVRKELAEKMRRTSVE
Experiment: LRRK2 G2019S Km ATP LanthaScreen assay
Type: biochemical
Conditions: 134 μM ATP (Km ATP), LRRKtide substrate, mean of several tests, read-out: LRRK2 pIC50 (converted)
Give just the numeric value; nM need not be written.

I would be grateful if you could share the reported IC50 for CC(C)n1nccc1C1CC1C(=O)Nc1cc2cc(N3CCN(C4(C)COCC4O)CC3)c(Cl)cc2cn1 (single isomer, unassigned) [Ex-10.21] .
44.7

I would be grateful if you could share the reported IC50 for CC1(N2CCN(c3cc4cc(NC(=O)C5CC56CCOCC6)ncc4cc3Cl)CC2)COCC1O (single isomer, unassigned) [Ex-2.2] .
3.63

I would be grateful if you could share the reported IC50 for Cc1cc2cnc(NC(=O)C3C4CCOCC43)cc2cc1N1CCN(C2(C)CCOC2)CC1 (single isomer, unassigned) [Ex-10.46] .
0.457

I would be grateful if you could share the reported IC50 for CC1(N2CCN(c3cc4cc(NC(=O)C5CC56CCOCC6)ncc4cc3Cl)CC2)CCOC1 (single isomer, unassigned) [Ex-5.13] .
83.2

I would be grateful if you could share the reported IC50 for CC1(c2ccccn2)CC1C(=O)Nc1cc2cc(N3CCN(C4(C)COCC4O)CC3)c(Cl)cc2cn1 (single isomer, unassigned) [Ex-11.1] .
0.0813

I would be grateful if you could share the reported IC50 for CC1(C)CC(C(=O)Nc2cc3cc(N4CCN(C5(C)COCC5O)CC4)c(Cl)cc3cn2)CO1 (single isomer, unassigned) [Ex-1.22] .
1.17

I would be grateful if you could share the reported IC50 for COC1COCC1N1CCN(c2cc3cc(NC(=O)C4CC45CCOCC5)ncc3cc2Cl)CC1 (single isomer, unassigned) [Ex-5.8] .
191

I would be grateful if you could share the reported IC50 for CC1(N2CCN(c3cc4cc(NC(=O)C5CC5c5cccs5)ncc4cc3Cl)CC2)COCC1O (single isomer, unassigned) [Ex-10.14] .
4.27

I would be grateful if you could share the reported IC50 for CC1(N2CCN(c3cc4cc(NC(=O)C5CC56CCOCC6)ncc4cc3Cl)CC2)COCC1O (single isomer, unassigned) [Ex-2.1] .
0.389

I would be grateful if you could share the reported IC50 for CCC1C(C(=O)Nc2cc3cc(N4CCN(C5(C)COCC5F)CC4)c(Cl)cc3cn2)C1c1ccccn1 (single isomer, unassigned) [Ex-10.90] .
2.04

I would be grateful if you could share the reported IC50 for CC1(C)CC2(CCO1)CC2C(=O)Nc1cc2cc(N3CCN(C4(C)COCC4O)CC3)c(Cl)cc2cn1 (single isomer, unassigned) [Ex-7.5] .
0.155

I would be grateful if you could share the reported IC50 for Cc1cc2cnc(NC(=O)C3CC34CCOC4)cc2cc1N1CCN(C2(C)COCC2O)CC1 (single isomer, unassigned) [Ex-6.3] .
0.832

I would be grateful if you could share the reported IC50 for CC(C)(O)C1CC1C(=O)Nc1cc2cc(N3CCN(C4(C)COCC4O)CC3)c(Cl)cc2cn1 (single isomer, unassigned) [Ex-10.5] .
4.79

I would be grateful if you could share the reported IC50 for CC1(N2CCN(c3cc4cc(NC(=O)C5CC5)ncc4cc3F)CC2)COCC1O (single isomer, unassigned) [Ex-1.5] .
7.08

I would be grateful if you could share the reported IC50 for COC1COCC1N1CCN(c2cc3cc(NC(=O)C4CC45CCOCC5)ncc3cc2Cl)CC1 (single isomer, unassigned) [Ex-5.9] .
1510

I would be grateful if you could share the reported IC50 for COC1COCC1(C)N1CCN(c2cc3cc(NC(=O)C4CC45CCOCC5)ncc3cc2Cl)CC1 (single isomer, unassigned) [Ex-5.4] .
28.8

I would be grateful if you could share the reported IC50 for Cc1cc2cnc(NC(=O)C3C(C)C3c3cnn(C)c3)cc2cc1N1CCN(C2(C)CCOC2)CC1 (single isomer, unassigned) [Ex-9.14] .
0.0813

I would be grateful if you could share the reported IC50 for CC1(N2CCN(c3cc4cc(NC(=O)C5CC56CCCOC6)ncc4cc3Cl)CC2)COCC1O (single isomer, unassigned) [Ex-1.17] .
776

I would be grateful if you could share the reported IC50 for CC(C)Cn1nccc1C1CC1C(=O)Nc1cc2cc(N3CCN(C4(C)COCC4O)CC3)c(Cl)cc2cn1 (single isomer, unassigned) [Ex-10.19] .
42.7

I would be grateful if you could share the reported IC50 for Cc1cc2cnc(NC(=O)C3CC34CCOCC4)cc2cc1N1CCN(C2(C)COCC2O)C[C@@H]1C (single isomer, unassigned) [Ex-15.1] .
4.68

I would be grateful if you could share the reported IC50 for CC1(N2CCN(c3cc4cc(NC(=O)C5CC5C(F)F)ncc4cc3Cl)CC2)COCC1F (single isomer, unassigned) [Ex-10.75] .
0.219

I would be grateful if you could share the reported IC50 for CC1(N2CCN(c3cc4cc(NC(=O)C5CC5c5ccco5)ncc4cc3Cl)CC2)COCC1O (single isomer, unassigned) [Ex-10.29] .
0.275

I would be grateful if you could share the reported IC50 for CCC1C(C(=O)Nc2cc3cc(N4CCN(C5(C)COCC5F)CC4)c(Cl)cc3cn2)C1c1ccccn1 (single isomer, unassigned) [Ex-10.89] .
0.0813

I would be grateful if you could share the reported IC50 for Cn1ncc(C2CC2C(=O)Nc2cc3cc(N4CCN(C5(C)COCC5F)CC4)c(Cl)cc3cn2)c1C(F)(F)F (single isomer, unassigned) [Ex-10.61] .
3.02

I would be grateful if you could share the reported IC50 for C[C@H]1CN(c2cc3cc(NC(=O)C4CC45CCOCC5)ncc3cc2Cl)CCN1C1(C)COCC1O (single isomer, unassigned) [Ex-2.21] .
0.589

src = patent US12516039B2
